- System: P. falciparum strain K1
- PROCEDURE TEXT: In vitro activity against P. falciparum, serial drug dilution assay
- ASSAY CONTEXT: in vitro
Structures can show the parent of a compound that is named as a salt.
OUTCOME MEASURE: Activity against P. falciparum (in words)

[
  {
    "COMPOUND": "CN(C)CCC=C1c2ccccc2CCc2ccccc21",
    "MEASURED": "micromolar range"
  },
  {
    "COMPOUND": "Clc1ccc(C(OCCN2CCCCC2)c2ccccc2)cc1 (centres unmarked)",
    "MEASURED": "selective activities"
  },
  {
    "COMPOUND": "Clc1ccc(COC(Cn2ccnc2)c2ccc(Cl)cc2Cl)c(Cl)c1 (centres unmarked) [Miconazole (Nitrate salt), Miconazole]",
    "MEASURED": "active"
  },
  {
    "COMPOUND": "CC(N)C12CC3CC(CC(C3)C1)C2 (centres unmarked)",
    "MEASURED": "selective activities"
  },
  {
    "COMPOUND": "CN1CCC(=C2c3ccccc3CC(=O)c3sccc32)CC1",
    "MEASURED": "selective activities"
  },
  {
    "COMPOUND": "Clc1ccc(COC(Cn2ccnc2)c2ccc(Cl)cc2Cl)cc1 (centres unmarked) [Econazole (Nitrate salt), Econazole]",
    "MEASURED": "active"
  },
  {
    "COMPOUND": "Clc1ccc(C(Cn2ccnc2)OCc2ccsc2Cl)c(Cl)c1 (centres unmarked)",
    "MEASURED": "active"
  },
  {
    "COMPOUND": "Clc1ccccc1C(c1ccccc1)(c1ccccc1)n1ccnc1",
    "MEASURED": "active"
  },
  {
    "COMPOUND": "CNCCC(Oc1ccc(C(F)(F)F)cc1)c1ccccc1 (centres unmarked)",
    "MEASURED": "micromolar range"
  },
  {
    "COMPOUND": "OCCN1CCN(CCCN2c3ccccc3Sc3ccc(C(F)(F)F)cc32)CC1",
    "MEASURED": "micromolar range"
  },
  {
    "COMPOUND": "OCCN(CCO)c1nc(N2CCCCC2)c2nc(N(CCO)CCO)nc(N3CCCCC3)c2n1",
    "MEASURED": "selective activities"
  }
]

###

Each entry below carries its recorded pIC50.
- PROCEDURE TEXT: in vitro
- ASSAY CONTEXT: rat, IC50 Cytotox. L6
pIC50: −log10 of the molar value.

[
  {
    "COMPOUND": "Clc1ccc(C(Cn2ccnc2)OCc2ccsc2Cl)c(Cl)c1 (stereo not drawn)",
    "COMPARATIVE SIGN": "=",
    "pIC50": 4.71
  },
  {
    "COMPOUND": "Cc1ncc([N+](=O)[O-])n1CC(O)CCl (stereo not drawn)",
    "COMPARATIVE SIGN": "<",
    "pIC50": 3.39
  },
  {
    "COMPOUND": "CN(C)CCCN1c2ccccc2Sc2ccc(Cl)cc21",
    "COMPARATIVE SIGN": "=",
    "pIC50": 4.91
  },
  {
    "COMPOUND": "NC12CC3CC(CC(C3)C1)C2",
    "COMPARATIVE SIGN": "=",
    "pIC50": 3.67
  },
  {
    "COMPOUND": "Cc1ncc([N+](=O)[O-])n1CC(C)O (stereo not drawn)",
    "COMPARATIVE SIGN": "<",
    "pIC50": 3.32
  },
  {
    "COMPOUND": "CC1CS(=O)(=O)CCN1/N=C/c1ccc([N+](=O)[O-])o1 (stereo not drawn)",
    "COMPARATIVE SIGN": "=",
    "pIC50": 4.06
  }
]

###

- Test system: T. b. rhodesiense strain STIB 900, trypomastigotes
- PROCEDURE TEXT: In vitro activity against T. b. rhodesiense, serial drug dilution assay
- ASSAY CONTEXT: Trypanosoma brucei, read-out: IC50 T. b. rhod.
pIC50: −log10 of the molar value. Where a name gives a salt, the structure may show the parent alone.
Each entry below carries its recorded pIC50.

[
  {
    "COMPOUND": "Cn1c([N+](=O)[O-])cnc1N1CCN(S(C)(=O)=O)C1=O [Satranidazole]",
    "COMPARATIVE SIGN": "=",
    "pIC50": 4.73
  },
  {
    "COMPOUND": "CCN(CC)CCCC(C)Nc1ccnc2cc(Cl)ccc12 (centres unmarked) [Chloroquine (Diphosphate), Chloroquine]",
    "COMPARATIVE SIGN": "=",
    "pIC50": 5.42
  },
  {
    "COMPOUND": "NC(=O)c1cnccn1 [Pyrazinamide]",
    "COMPARATIVE SIGN": "<",
    "pIC50": 3.09
  },
  {
    "COMPOUND": "COC(=O)N[C@H](C(=O)N[C@@H](Cc1ccccc1)[C@@H](O)CN(Cc1ccc(-c2ccccn2)cc1)NC(=O)[C@@H](NC(=O)OC)C(C)(C)C)C(C)(C)C [Atazanavir (Sulfate), Atazanavir]",
    "COMPARATIVE SIGN": "=",
    "pIC50": 4.89
  },
  {
    "COMPOUND": "Cc1cn([C@H]2C=C[C@@H](CO)O2)c(=O)[nH]c1=O [Stavudine]",
    "COMPARATIVE SIGN": "=",
    "pIC50": 3.92
  },
  {
    "COMPOUND": "CN(C/C=C/C#CC(C)(C)C)Cc1cccc2ccccc12 [Terbinafine (Hydrochloride), Terbinafine]",
    "COMPARATIVE SIGN": "=",
    "pIC50": 4.02
  },
  {
    "COMPOUND": "O=C1CN(/N=C/c2ccc([N+](=O)[O-])o2)C(=O)N1 [Nitrofurantoine]",
    "COMPARATIVE SIGN": "=",
    "pIC50": 6.30
  },
  {
    "COMPOUND": "Cc1cn([C@H]2C[C@H](N=[N+]=[N-])[C@@H](CO)O2)c(=O)[nH]c1=O [Zidovudine]",
    "COMPARATIVE SIGN": "=",
    "pIC50": 3.86
  }
]

###

Each entry below carries its recorded IC50 at 96 h.
- PROCEDURE TEXT: Cytotoxicity on macrophages infected with L. donovani
- Assay type: cell-based, mouse
- ASSAY CONTEXT: mouse, macrophages infected with L. donovani; read-out: IC50 Cytotox. mac.inf.
OUTCOME MEASURE: IC50 at 96 h

[
  {
    "COMPOUND": "Cc1cn([C@H]2C[C@H](N=[N+]=[N-])[C@@H](CO)O2)c(=O)[nH]c1=O",
    "OUTCOME MEASURE": "IC50 at 96 h",
    "MEASURED": "> 112 µM"
  },
  {
    "COMPOUND": "C[C@@H]1[C@H](O)[C@@H](C)/C=C/C=C/C=C/C=C/C=C/C=C/C=C/[C@H](O[C@@H]2O[C@H](C)[C@@H](O)[C@H](N)[C@@H]2O)C[C@@H]2O[C@](O)(C[C@@H](O)C[C@@H](O)[C@H](O)CC[C@@H](O)C[C@@H](O)CC(=O)O[C@H]1C)C[C@H](O)[C@H]2C(=O)O",
    "OUTCOME MEASURE": "IC50 at 96 h",
    "MEASURED": "32.4 µM"
  },
  {
    "COMPOUND": "CN1CC(=O)N2[C@H](c3ccc4c(c3)OCO4)c3[nH]c4ccccc4c3C[C@@H]2C1=O",
    "OUTCOME MEASURE": "IC50 at 96 h",
    "MEASURED": "> 77 µM"
  },
  {
    "COMPOUND": "O=C1CN(/N=C/c2ccc([N+](=O)[O-])o2)C(=O)N1",
    "OUTCOME MEASURE": "IC50 at 96 h",
    "MEASURED": "125 µM"
  },
  {
    "COMPOUND": "CC(Cc1cccc(C(F)(F)F)c1)NCCOC(=O)c1ccccc1 (stereo not shown)",
    "OUTCOME MEASURE": "IC50 at 96 h",
    "MEASURED": "> 85.4 µM"
  },
  {
    "COMPOUND": "C[C@@H](c1ncncc1F)[C@](O)(Cn1cncn1)c1ccc(F)cc1F",
    "OUTCOME MEASURE": "IC50 at 96 h",
    "MEASURED": "> 85.9 µM"
  },
  {
    "COMPOUND": "Cc1ncc([N+](=O)[O-])n1CC(O)CCl (stereo not shown)",
    "OUTCOME MEASURE": "IC50 at 96 h",
    "MEASURED": "> 136 µM"
  }
]
